Data provenance: patent US5726162A

system: fungal inoculum; assay: organism not typed; assay type: cell-based; settings: read-out: % growth inhibition
Measured inhibition at 50 ppm, listed per entry for reference.
Use % as the unit, but write only the number.

>>> df
                                   molecule  unitssymbol  result
0  CC#CCN1N=C(c2ccc(Cl)c([N+](=O)[O-])c2)CCC1=O [Compound 39]            %    94.6
1  CCC#CCN1N=C2c3ccccc3CC2CC1=O (stereo not drawn) [Compound 142]            %     100
2  O=C1CCC(c2ccc(Cl)cc2)=NN1CC#CCBr [Compound 71]            %    92.6
3  COC(=O)C#CCN1N=C(c2ccc(Cl)cc2)CCC1=O [Compound 55]            %     100
4  CC(O)C#CCN1N=C(c2ccc(Cl)cc2)CCC1=O (stereo not drawn) [Compound 47]            %     100

Kindly review the next molecule as well.
## Task What measured inhibition at 50 ppm goes with N#CCN1N=C(c2ccc(Cl)cc2)CCC1=O [Compound 35] ?
## Result 85
